# experimental target: Thyrotropin-releasing hormone receptor (Homo sapiens)
# procedure text: qHTS assay to identify small molecule antagonists of the thyrotropin-releasing hormone receptor (TRHR) signaling pathway (AID 1346877)
# assay conditions: TRHR-HEK293, TRH-induced calcium fluorescence, antagonist mode; series mostly up to 51.3 µM
Activity calls are given as the source filed them. Calls come from the whole dose curve; as a rule, active = well fitted inhibition curve with a large enough effect in the repeat runs (not every such curve was filed as active); inconclusive = weak or mixed curves; inactive = flat fitted curve, though single readings scatter.
measured metric: activity, negative = inhibition

For orientation, consider the following solved cases.
CCc1cccc(CC)c1NC(=O)CN(CC(=O)O)CC(=O)O    inactive
CCCCCCCCCCC[C@@H](C[C@@H]1OC(=O)[C@H]1CCCCCC)OC(=O)[C@H](CC(C)C)NC=O    inactive
CC(C)(c1cc(Br)c(OCC(Br)CBr)c(Br)c1)c1cc(Br)c(OCC(Br)CBr)c(Br)c1 (stereo unspecified)    inactive
CCN(CCN)c1cccc(C)c1    inactive
CCn1c2ccccc2c2cc([N+](=O)[O-])ccc21    inactive
Oc1ccccc1O    inactive

Provide activity, negative = inhibition values for the following items, in order.
1. O=[N+]([O-])c1ccc(O)cc1C(F)(F)F
2. COc1ccc2c(c1)c(CC(=O)OC/C=C(\C)CC/C=C(\C)CCC=C(C)C)c(C)n2C(=O)c1ccc(Cl)cc1

["inactive", "inactive"]

For every record below, what is its activity, negative = inhibition?
1. CCOC(=O)Cn1cccc1-c1nc(-c2ccc(OC)cc2)c(-c2ccc(OC)cc2)s1
2. Cc1nc2n(c(=O)c1CCN1CCC(c3noc4cc(F)ccc34)CC1)CCCC2
3. OCC(F)(F)F

1: inactive; 2: inactive; 3: inactive
